molecular target: β2-AR (Homo sapiens); format: binding; details: marker [3H]-CGP-12177
Sequence (P07550 whole entry): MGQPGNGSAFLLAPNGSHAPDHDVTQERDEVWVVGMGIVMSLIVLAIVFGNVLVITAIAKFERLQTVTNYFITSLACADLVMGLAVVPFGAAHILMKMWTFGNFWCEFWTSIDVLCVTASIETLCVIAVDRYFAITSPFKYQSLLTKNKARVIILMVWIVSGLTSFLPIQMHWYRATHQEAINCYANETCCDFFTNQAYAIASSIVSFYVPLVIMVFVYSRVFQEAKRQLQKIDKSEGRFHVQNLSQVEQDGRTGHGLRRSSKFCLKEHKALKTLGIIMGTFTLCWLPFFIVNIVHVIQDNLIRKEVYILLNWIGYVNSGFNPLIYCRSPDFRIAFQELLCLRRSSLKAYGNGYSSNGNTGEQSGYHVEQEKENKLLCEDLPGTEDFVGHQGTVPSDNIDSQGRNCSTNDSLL
readout name: HS (Hill coefficient), displacement of [3H]-CGP-12177
No unit in the answer, please; the number alone is enough.

Recorded results for 3 compounds are shown here.
INSERT INTO measurements (compound, experimental_value) VALUES
  ('COc1ccc(C[C@@H](C)NC[C@H](O)c2cc(O)cc(O)c2)c2ccccc12 [(R,R′)-54]', 1.07),
  ('CCC[C@H](Cc1ccc(OC)cc1)NC[C@H](O)c1cc(O)cc(O)c1 [(R,R′)-66]', 0.90),
  ('COc1ccc(CCNC[C@H](O)c2cc(O)cc(O)c2)cc1 [(R)-67]', 1.80);

// recorded HS (Hill coefficient), displacement of [3H]-CGP-12177 for C[C@@H](Cc1ccc(O)cc1)NC[C@H](O)c1cc(O)cc(O)c1 [(R,S′)-1] : 0.81

What the record says about COc1ccc(C[C@H](C)NC[C@H](O)c2cc(O)cc(O)c2)c2ccccc12 [(R,S′)-54] : HS (Hill coefficient), displacement of [3H]-CGP-12177 is 1.06

Record summary for CC[C@@H](Cc1ccc(O)cc1)NC[C@H](O)c1cc(O)cc(O)c1 [(R,S′)-52] : reported HS (Hill coefficient), displacement of [3H]-CGP-12177 = 2.07

// recorded HS (Hill coefficient), displacement of [3H]-CGP-12177 for CC[C@H](Cc1ccc(O)cc1)NC[C@H](O)c1cc(O)cc(O)c1 [(R,R′)-52] : 1.01

response.value for CC[C@H](Cc1ccc(OC)cc1)NC[C@H](O)c1cc(O)cc(O)c1 [(R,R′)-64] (field: HS (Hill coefficient), displacement of [3H]-CGP-12177) = 1.00

====

biological target: β2-AR (Homo sapiens); conditions: marker [3H]-(R,R′)-2
Quick reference: HS (Hill coefficient), displacement of [3H]-(R,R′)-2 of the listed items.
Returns: the value as a bare number; no unit string appended.

Record excerpt, results attached:
INSERT INTO measurements (compound, study_target, experimental_value) VALUES
  ('COc1ccc(C[C@H](C)NC[C@@H](O)c2cc(O)cc(O)c2)cc1 [(S,S′)-2]', 'β2-AR (Homo sapiens)', 1.68),
  ('CCC[C@@H](Cc1ccc(OC)cc1)NC[C@H](O)c1cc(O)cc(O)c1 [(R,S′)-66]', 'β2-AR (Homo sapiens)', 0.89),
  ('COc1ccc(C[C@@H](C)NC[C@@H](O)c2cc(O)cc(O)c2)cc1 [(S,R′)-2]', 'β2-AR (Homo sapiens)', 0.86);

Entry C[C@H](Cc1ccc(O)cc1)NC[C@H](O)c1cc(O)cc(O)c1 [(R,R′)-1, (R,R′)-Fenoterol] — recorded HS (Hill coefficient), displacement of [3H]-(R,R′)-2 = 0.76

# HS (Hill coefficient), displacement of [3H]-(R,R′)-2 (compound: CC[C@@H](Cc1ccc(O)cc1)NC[C@H](O)c1cc(O)cc(O)c1 [(R,S′)-52] ) is 0.87

Sure, the documented HS (Hill coefficient), displacement of [3H]-(R,R′)-2 for COc1ccc(C[C@H](C)NC[C@H](O)c2cc(O)cc(O)c2)cc1 [(R,S′)-2] is 1.00

Lab note: CC[C@H](Cc1ccc(O)cc1)NC[C@H](O)c1cc(O)cc(O)c1 [(R,R′)-52] gave HS (Hill coefficient), displacement of [3H]-(R,R′)-2 of 0.93

The value of HS (Hill coefficient), displacement of [3H]-(R,R′)-2 measured for the compound C[C@@H](Cc1ccc(O)cc1)NC[C@H](O)c1cc(O)cc(O)c1 [(R,S′)-1] turned out to be 0.97
